runDescription: recombinant barcode read abundance after kanamycin selection (control-corrected) (log10(CPM+1)); higher = more efficient recombination; sequences stand for … in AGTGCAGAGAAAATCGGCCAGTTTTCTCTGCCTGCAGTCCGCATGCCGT…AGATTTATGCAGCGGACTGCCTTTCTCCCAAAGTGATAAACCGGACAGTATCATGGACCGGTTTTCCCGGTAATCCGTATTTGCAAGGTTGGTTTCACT; site = the 11-nt target;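 note: IS621 recombinase and bridge RNA in Escherichia coli cells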
The reader will find reported recombinant barcode read abundance (log10) values listed item by item below.
Lab note: record just the number, no unit beside it.

Reference set (5 entries):
Task item: Which recombinant barcode read abundance (log10) value is on record for ACTCGTCCTTGGGTTCTAACCTGTTGCTA (site GAGAAGACTAC) ?
Reply: 0.0362

Task item: Which recombinant barcode read abundance (log10) value is on record for ATCAAGCCTTGGGTTCTAACCTGTTGCTT (site ATCAAGCCTAA) ?
Reply: 0.102

Task item: Which recombinant barcode read abundance (log10) value is on record for TAGAAGACTTGGGTTCTAACCTGTTGCTC (site TAGAAGACTCA) ?
Reply: 0.178

Task item: Which recombinant barcode read abundance (log10) value is on record for TCGATGTCTTGGGTTCTAACCTGTTGCCT (site TCGAATTCTAG) ?
Reply: 0.174

Task item: Which recombinant barcode read abundance (log10) value is on record for CTACGTCCTTGGGTTCTAACCTGTTGCTG (site CTACGTCCTAA) ?
Reply: 0.0384

Next:
Task item: Which recombinant barcode read abundance (log10) value is on record for GATTATGCTTGGGTTCTAACCTGTTGCCT (site GATTATGCTAG) ?
Reply: 0.615

Task item: Which recombinant barcode read abundance (log10) value is on record for AGGCCGGCTTGGGTTCTAACCTGTTGCCG (site AGGCCGCCTCG) ?
Reply: 0.294

Task item: Which recombinant barcode read abundance (log10) value is on record for TCTTGGACTTGGGTTCTAACCTGTTGCTG (site TCTTGGACTAA) ?
Reply: 0.159

Task item: Which recombinant barcode read abundance (log10) value is on record for CTCTCGTCTTGGGTTCTAACCTGTTGCGT (site CTCTCGTCTAA) ?
Reply: 0.0993

Task item: Which recombinant barcode read abundance (log10) value is on record for GAGCAACCTTGGGTTCTAACCTGTTGCTT (site GAGCAACCTAA) ?
Reply: 0.0979

Task item: Which recombinant barcode read abundance (log10) value is on record for ACGTCAACTTGGGTTCTAACCTGTTGCCT (site ACCTCAACTAG) ?
Reply: 0.454

Task item: Which recombinant barcode read abundance (log10) value is on record for TACTCCGCTTGGGTTCTAACCTGTTGCCT (site TACTCCGCTAG) ?
Reply: 1.02

Task item: Which recombinant barcode read abundance (log10) value is on record for GGATCCACTTGGGTTCTAACCTGTTGCCT (site CGATCCACTAG) ?
Reply: 0.0861

Task item: Which recombinant barcode read abundance (log10) value is on record for GTCGTACCTTGGGTTCTAACCTGTTGCCT (site GTCATACCTAG) ?
Reply: 0.348

Task item: Which recombinant barcode read abundance (log10) value is on record for CCTAGATCTTGGGTTCTAACCTGTTGCCT (site CCTAGAGCTAG) ?
Reply: 0.0181

Task item: Which recombinant barcode read abundance (log10) value is on record for GAAGCGCCTTGGGTTCTAACCTGTTGCCT (site GAAGAGCCTAG) ?
Reply: 0.0683

Task item: Which recombinant barcode read abundance (log10) value is on record for TACTATCCTTGGGTTCTAACCTGTTGCCT (site TACTATGCTAG) ?
Reply: 0

Task item: Which recombinant barcode read abundance (log10) value is on record for TATACAACTTGGGTTCTAACCTGTTGCCT (site TATACAACTAG) ?
Reply: 0.112

Task item: Which recombinant barcode read abundance (log10) value is on record for TACCCTACTTGGGTTCTAACCTGTTGCAT (site TACCCTACTAT) ?
Reply: 0.654

Task item: Which recombinant barcode read abundance (log10) value is on record for TGAGAGGCTTGGGTTCTAACCTGTTGCCT (site TGAGCGGCTAG) ?
Reply: 0.173

Task item: Which recombinant barcode read abundance (log10) value is on record for TTAGTGGCTTGGGTTCTAACCTGTTGCCT (site TTAGTCGCTAG) ?
Reply: 0.0499

Task item: Which recombinant barcode read abundance (log10) value is on record for GTAACTGCTTGGGTTCTAACCTGTTGCCT (site GTAACTGCTAG) ?
Reply: 0.941
